# tgt: T1, recombinant cynomolgus NKG2D-Fc fusion protein (cynomolgus; human, UniProt P61252 73-216)
# T1 construct: extracellular domain; not shown: human IgG1 Fc domain
# T1 sequence (looked up): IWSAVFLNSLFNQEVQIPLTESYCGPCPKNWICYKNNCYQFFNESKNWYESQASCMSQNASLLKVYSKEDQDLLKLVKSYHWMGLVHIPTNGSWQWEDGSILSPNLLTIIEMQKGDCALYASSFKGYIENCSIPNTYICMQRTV
# assay-summary: ELISA on coated NKG2D-Fc
measured-attribute: binding result

Use these answered entries as a reference point.
binder	binding result
ADI-27740 (antibody, V domains shown, also called A40) VH: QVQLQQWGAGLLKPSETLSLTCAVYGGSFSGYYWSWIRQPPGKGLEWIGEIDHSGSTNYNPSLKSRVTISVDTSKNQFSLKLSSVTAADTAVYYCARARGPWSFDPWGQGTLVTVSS VL: DIQMTQSPSTLSASVGDRVTITCRASQSIGSWLAWYQQKPGKAPKLLIYKASSLESGVPSRFSGSGSGTEFTLTISSLQPDDFATYYCQQYHSFYTFGGGTKVEIK	binds
ADI-29429 (antibody, V domains shown) VH: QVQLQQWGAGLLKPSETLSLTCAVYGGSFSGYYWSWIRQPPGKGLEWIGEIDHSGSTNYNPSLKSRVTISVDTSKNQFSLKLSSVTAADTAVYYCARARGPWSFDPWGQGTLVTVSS VL: DIQMTQSPSTLSASVGDRVTITCRASQSIGSWLAWYQQKPGKAPKLLIYKASSLESGVPSRFSGSGSGTEFTLTISSLQPDDFATYYCQQYELYSYTFGGGTKVEIK	binds
ADI-29424 (antibody, V domains shown) VH: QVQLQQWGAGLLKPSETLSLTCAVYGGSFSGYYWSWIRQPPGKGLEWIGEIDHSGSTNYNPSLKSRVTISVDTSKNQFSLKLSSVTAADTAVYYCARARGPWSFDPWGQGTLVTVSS VL: DIQMTQSPSTLSASVGDRVTITCRASQSISSWLAWYQQKPGKAPKLLIYKASSLESGVPSRFSGSGSGTEFTLTISSLQPDDFATYYCQQYDSFITFGGGTKVEIK	binds
ADI-29405 (antibody, V domains shown) VH: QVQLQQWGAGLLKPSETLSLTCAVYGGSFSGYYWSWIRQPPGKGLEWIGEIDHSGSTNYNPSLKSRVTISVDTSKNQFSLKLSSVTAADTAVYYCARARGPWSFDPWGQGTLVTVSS VL: DIQMTQSPSTLSASVGDRVTITCRASQSISSWLAWYQQKPGKAPKLLIYKASSLESGVPSRFSGSGSGTEFTLTISSLQPDDFATYYCQQYGSFPTFGGGTKVEIK	binds
ADI-27749 (antibody, V domains shown, also called A49) VH: EVQLVESGGGLVKPGGSLRLSCAASGFTFSSYSMNWVRQAPGKGLEWVSSISSSSSYIYYADSVKGRFTISRDNAKNSLYLQMNSLRAEDTAVYYCARGAPMGAAAGWFDPWGQGTLVTVSS VL: DIQMTQSPSSVSASVGDRVTITCRASQGISSWLAWYQQKPGKAPKLLIYAASSLQSGVPSRFSGSGSGTDFTLTISSLQPEDFATYYCQQGVSFPRTFGGGTKVEIK	binds

Give binding result for the following binder: ADI-29447 (antibody, V domains shown, also called F47) VH: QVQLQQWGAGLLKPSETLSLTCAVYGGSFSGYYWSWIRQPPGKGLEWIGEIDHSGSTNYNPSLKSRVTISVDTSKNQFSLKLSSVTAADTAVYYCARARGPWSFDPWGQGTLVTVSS VL: DIQMTQSPSTLSASVGDRVTITCRASQSISSWLAWYQQKPGKAPKLLIYKASSLESGVPSRFSGSGSGTEFTLTISSLQPDDFATYYCQQYDTFITFGGGTKVEIK
binds

Please give measured binding result of the following entry: ADI-29401 (antibody, V domains shown) VH: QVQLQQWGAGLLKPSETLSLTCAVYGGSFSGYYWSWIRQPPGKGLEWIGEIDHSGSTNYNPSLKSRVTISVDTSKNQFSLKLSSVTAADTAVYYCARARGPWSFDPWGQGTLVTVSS VL: DIQMTQSPSTLSASVGDRVTITCRASQSIGSWLAWYQQKPGKAPKLLIYKASSLESGVPSRFSGSGSGTEFTLTISSLQPDDFATYYCQQYDIYPTFGGGTKVEIK
binds

Supply recorded binding result for ADI-29404 (antibody, V domains shown, also called F04) VH: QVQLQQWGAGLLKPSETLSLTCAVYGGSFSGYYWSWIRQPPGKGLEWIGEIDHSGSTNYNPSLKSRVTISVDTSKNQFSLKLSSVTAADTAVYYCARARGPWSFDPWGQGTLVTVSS VL: DIQMTQSPSTLSASVGDRVTITCRASQSISSWLAWYQQKPGKAPKLLIYKASSLESGVPSRFSGSGSGTEFTLTISSLQPDDFATYYCEQYDSYPTFGGGTKVEIK here.
binds

Please report the measured binding result for ADI-29378 (antibody, V domains shown, also called E78) VH: QVQLVQSGAEVKKPGASVKVSCKASGYTFTSYYMHWVRQAPGQGLEWMGIINPSGGSTSYAQKFQGRVTMTRDTSTSTVYMELSSLRSEDTAVYYCAREGAGFAYGMDYYYMDVWGKGTTVTVSS VL: EIVLTQSPATLSLSPGERATLSCRASQSVSSYLAWYQQKPGQAPRLLIYDASNRATGIPARFSGSGSGTDFTLTISSLEPEDFAVYYCQQSDNWPFTFGGGTKVEIK
binds

Provide binding result value for the following binder: ADI-28226 (antibody, V domains shown, also called C26) VH: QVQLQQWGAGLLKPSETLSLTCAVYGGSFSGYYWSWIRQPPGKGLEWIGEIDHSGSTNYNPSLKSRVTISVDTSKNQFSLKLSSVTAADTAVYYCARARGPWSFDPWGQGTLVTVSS VL: DIQMTQSPSTLSASVGDRVTITCRASQSISSWLAWYQQKPGKAPKLLIYKASSLESGVPSRFSGSGSGTEFTLTISSLQPDDFATYYCQQYGSFPITFGGGTKVEIK
binds

All figures here come from patent US20200231679A1.
